- Species: Homo sapiens
- experimental_protocol: Selectivity index, ratio of IC50 for human BuChE to IC50 for human AChE
# true (1) = Ratio IC50 below 0.4 (exclusive); false (0) = Ratio IC50 at/above 0.4

{"molecule": "COc1cc2c3cc1Oc1c(O)c(OC)cc4c1[C@@H](Cc1ccc(O)c(c1)Oc1ccc(cc1)C[C@@H]3N(C)CC2)N(C)CC4", "class": "false (0)"}
{"molecule": "COc1cc2c(cc1O)C(Cc1ccc(O)c(Oc3cc(CC4c5cc(O)c(OC)cc5CCN4C)ccc3OC)c1)N(C)CC2 (configuration not stated)", "class": "true (1)"}
{"molecule": "COc1cc2c3cc1Oc1c(O)c(OC)cc4c1[C@H](Cc1ccc(cc1)Oc1cc(ccc1O)C[C@H]3N(C)CC2)N(C)CC4", "class": "true (1)"}
{"molecule": "COc1cc2c(cc1Oc1c3c(cc(OC)c1OC)CCN(C)C3)C(Cc1ccc(O)cc1)N(C)CC2 (configuration not stated)", "class": "true (1)"}
{"molecule": "COc1cc2c(cc1OC)-c1cc3ccc(OC)c(OC)c3c[n+]1CC2", "class": "false (0)"}
{"molecule": "COc1ccc2cc3n(c(=O)c2c1OC)CCc1cc2c(cc1-3)OCO2", "class": "false (0)"}

---

- experimental_protocol: Permeability of the compound after 2.45 hrs by PAMPA
- Assay type: ADME
- condition_info: read-out: permeability
Measured Papp at 2.45 h of individual entries
observation_type: Papp at 2.45 h

{"molecule": "COc1ccc2cc3[n+](cc2c1OC)CCc1cc2c(cc1-3)OCO2 [BERBERINE]", "measured_result": "0.1 ×10⁻⁶ cm/s"}
{"molecule": "COc1cc2c3cc1Oc1c(O)c(OC)cc4c1[C@H](Cc1ccc(cc1)Oc1cc(ccc1O)C[C@H]3N(C)CC2)N(C)CC4", "measured_result": "1.8 ×10⁻⁶ cm/s"}

---

pIC50: −log10 of the molar value.
pIC50, Cholinesterase (Homo sapiens): measured values

{"molecule": "C/C=C1\\[C@H]2C=C(C)C[C@]1(N)c1ccc(=O)[nH]c1C2", "relation_qualifier": "<", "pIC50": 4.00}
{"molecule": "COc1ccc2cc3n(c(=O)c2c1OC)CCc1cc2c(cc1-3)OCO2", "relation_qualifier": "=", "pIC50": 4.17}
{"molecule": "COc1cc2c3cc1Oc1c(O)c(OC)cc4c1[C@H](Cc1ccc(cc1)Oc1cc(ccc1O)C[C@H]3N(C)CC2)N(C)CC4", "relation_qualifier": "=", "pIC50": 6.10}
{"molecule": "COc1cc2c3cc1Oc1c(OC)c(OC)cc4c1[C@@H](Cc1ccc(O)c(c1)Oc1ccc(cc1)C[C@@H]3N(C)CC2)N(C)CC4", "relation_qualifier": "<", "pIC50": 4.00}
{"molecule": "COc1cc2c3cc1Oc1c(O)c(OC)cc4c1[C@@H](Cc1ccc(O)c(c1)Oc1ccc(cc1)C[C@@H]3N(C)CC2)N(C)CC4", "relation_qualifier": "<", "pIC50": 4.00}
{"molecule": "COc1cc2c(cc1O)C(Cc1ccc(O)c(Oc3cc(CC4c5cc(O)c(OC)cc5CCN4C)ccc3OC)c1)N(C)CC2 (centres undefined)", "relation_qualifier": "=", "pIC50": 5.16}
{"molecule": "CCN(CC)Cc1cc2cc(c1O)Oc1ccc(cc1)C[C@H]1c3cc(c(OC)cc3CCN1C)Oc1c(OC)c(OC)cc3c1[C@@H](C2)N(C)CC3", "relation_qualifier": "<", "pIC50": 4.00}
{"molecule": "COc1cc2c(cc1Oc1c3c(cc(OC)c1OC)CCN(C)C3)C(Cc1ccc(O)cc1)N(C)CC2 (centres undefined)", "relation_qualifier": "=", "pIC50": 4.17}
{"molecule": "COc1cc2c(cc1OC)-c1cc3ccc(OC)c(OC)c3c[n+]1CC2", "relation_qualifier": "<", "pIC50": 4.00}
